# targetOfAssay: native rat cortical TRH receptors
# testDetails: TRH receptor binding: displacement of [3H][3-Me-His2]TRH from rat cortical membranes
# runParameters: in saline; read-out: Ki, inhibition of [3H]-3MeHis-TRH binding
quantityKind: Ki (nM)
Report only the number, with the unit nM understood.

Indicate the recorded Ki value for this molecule: Cn1cncc1C[C@H](NC(=O)[C@@H]1CCC(=O)N1)C(=O)N1CCC[C@H]1C(N)=O [3-MeHis-TRH, reference compound]
1.9

----------
# targetOfAssay: native rat cortical TRH receptors
# testDetails: TRH receptor binding: displacement of [3H][3-Me-His2]TRH from rat cortical membranes
# runParameters: in DMSO; read-out: Ki, inhibition of [3H]-3MeHis-TRH binding
quantityKind: Ki (nM)
Report only the number, with the unit nM understood.

Enter measured Ki, system native rat cortical TRH receptors, for the compound shown: Cn1cncc1C[C@H](NC(=O)[C@@H]1CCC(=O)N1)C(=O)N1CCC[C@H]1C(N)=O [3-MeHis-TRH, reference compound]
74
